This collection of values is drawn from the supplement of paper PMC13380429.

test system: Caco-2; assay: drug sensitivity score (DSS) for viability; higher = more toxic; extreme values may be limits of the assay; conditions: 72 h
Reported Endpoint: drug sensitivity score
Answers are plain numbers.

In the examples that follow, each entry is paired with its recorded drug sensitivity score.
Compound	drug sensitivity score
O=C(NCc1ccc(F)cc1)N1CCN2C(=O)OC(c3ccccc3)(c3ccccc3)[C@@H]2C1 (racemic) [SHA-68]	0.5
CNCC(=O)O [sarcosine]	0
CCCCNc1ncc2c(-c3ccc(CN4CCN(C)CC4)cc3)cn([C@H]3CC[C@H](O)CC3)c2n1 [UNC2025]	4.3
N#Cc1ccc(N2CCN(C(=O)COc3ccc4[nH]cc(CCN)c4c3)CC2)cc1 [donitriptan]	0

Now consider a different compound.
Recorded drug sensitivity score (compound COc1ccc2nc3c(c(N)c2c1)CCCC3 [7-methoxytacrine] ): 0
